endpoint label: pIC50
Reminder that pIC50 means the negative base-10 logarithm of the concentration expressed in mol/L.

Under hCA I (Homo sapiens): pIC50 value of COc1cccc([C@@H]2[C@H](OC(C)=O)C(=O)N2C2Cc3ccccc3C2)c1 (relative stereo) ?
8.64

Under hCA I (Homo sapiens): pIC50 value of CC(=O)O[C@@H]1C(=O)N(C2Cc3ccccc3C2)[C@@H]1c1ccc(Cl)c(Cl)c1 (relative stereo) ?
8.79

Under hCA I (Homo sapiens): pIC50 value of CC(=O)OC1C(=O)N(C2Cc3ccccc3C2)C1c1ccc(Br)cc1 (stereo not shown) ?
8.59

Under hCA I (Homo sapiens): pIC50 value of CC(=O)O[C@@H]1C(=O)N(C2Cc3ccccc3C2)[C@@H]1c1ccccc1Br (relative stereo) ?
8.58
